# System: Saccharomyces cerevisiae
# Protocol Notes: protein stability index of tFT-peptide fusion (C-terminal peptide) (PSI (0-1 scale)); higher = more stable (slower turnover);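 further: PSI is a weighted mean of sequencing reads over stability bins, variants kept only with over 10 reads, mCherry proximal and sfGFP distal, peptide attached via GGGS linker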
# Test Context: genetic background: wild type; temperature: 30 C
# key: entry, value: protein stability index
Please give the numeric answer without any surrounding text.

Example sequences with recorded protein stability index:
WKEVGGSRILLV	0.603
FGVGGRWVVPGA	0.733
AGRGRHPRSTWR	0.688
GLCSMRLYKPRI	0.634
GQSSYFRRFRVG	0.619
GVRGKDCMGGGM	0.613

Then there is this sequence:
Please report the recorded protein stability index for KERARNTKRGSD .
0.641

----------
# Test system: Saccharomyces cerevisiae
# Protocol Notes: protein stability index of tFT-peptide fusion (C-terminal peptide) (PSI (0-1 scale)); higher = more stable (slower turnover)
# Test Context: genetic background: das1 deletion; temperature: 37 C
We use 0.5 as the dividing line for protein stability index: on or above the line is MET, below is NOT MET.

PAMPTEPKSSSG	MET
RVIRHLRRISNF	MET
VLYSRFPPPLIA	MET

Please indicate if the recorded protein stability index for ALFVGVVLLVCW meets or exceeds 0.5.
NOT MET

Please indicate if the recorded protein stability index for RLRCRVLQWVWG meets or exceeds 0.5.
MET

Please indicate if the recorded protein stability index for VFFVLIFLLFLF meets or exceeds 0.5.
NOT MET

Please indicate if the recorded protein stability index for LLVFSLLRPFLF meets or exceeds 0.5.
MET

Please indicate if the recorded protein stability index for PHRLSRFILRLL meets or exceeds 0.5.
MET

Please indicate if the recorded protein stability index for YKLRAVFVCSVT meets or exceeds 0.5.
MET

----------
# System: Saccharomyces cerevisiae
# Protocol Notes: protein stability index of tFT-peptide fusion (C-terminal peptide) (PSI (0-1 scale)); higher = more stable (slower turnover)
# Test Context: genetic background: wild type; temperature: 30 C
Endpoint Label: protein stability index
Please give the numeric answer without any surrounding text.

Example sequences with recorded protein stability index:
PPEPVRHTSGLS	0.807
LWRVRCGLGMSG	0.681
VLSGLPPGFTLV	0.644
SGGRCVGVGGVV	0.658
EWMIHQFCRVPV	0.62

Please report the recorded protein stability index for SSSAPLPPSLPL .
0.791

Please report the recorded protein stability index for RKVTSIESGVMT .
0.655

----------
# Test system: Saccharomyces cerevisiae
# Protocol Notes: protein stability index of tFT-peptide fusion (C-terminal peptide) (PSI (0-1 scale)); higher = more stable (slower turnover)
# Test Context: genetic background: wild type; temperature: 30 C
Endpoint Label: protein stability index
Please give the numeric answer without any surrounding text.

Example sequences with recorded protein stability index:
LPIPCPSPPPPR	0.708
FVLFCWFFCIVW	0.273
GGGGAGFRGGIE	0.68
RERAQEMGIRNE	0.675
ISSAGHNIRFLA	0.23
TLSSSPRPLPVP	0.692
ECGAGRVYGDPW	0.652
PPPPPPLITPPL	0.666
VGVWRGWDVDCH	0.776
FLSTGIGKGVFL	0.694

Please report the recorded protein stability index for DTDDARGVWGSV .
0.715

Please report the recorded protein stability index for RSLGGGVGARFV .
0.695

Please report the recorded protein stability index for ETSRTYGNFPIT .
0.774

Please report the recorded protein stability index for GFRVRCSICGSA .
0.681

Please report the recorded protein stability index for KNKTKQKTRTET .
0.704
